- Test system: ATP;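 further: ATP exposure 15 min at 22 °C before imaging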
- Method Notes: switch fluorescence ratio, 500 uM ATP over buffer (Cy3 cluster intensity, sum of 5 cycles each) (fold (ratio)); higher = stronger signal-on switching upon ATP binding; sequences stand for … in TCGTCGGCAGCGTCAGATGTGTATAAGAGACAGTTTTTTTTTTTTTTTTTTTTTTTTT…TC
- Test Settings: aptamer strand: ATP DNA aptamer (quencher-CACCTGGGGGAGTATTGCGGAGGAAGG + anchor), 100 nM annealed; ATP concentration: 500 uM

Sequence Content	switch fluorescence ratio
TAGGAAGATG	1.02
GGGGGGGTAC	1.23
AGTCCTTATT	0.977
GAAGTAGTTT	0.98
TGGCACAGGG	1.06
TCCAGGGGGG	1.18
ATTTGCGGTG	1.01
TAGAAAGTTG	0.953
TCTCTGTCGA	1.4
GGTGCCGAAT	0.998
TTATCCAGCT	1.01
GGGGCAAAGA	1.02
TTTCCAGACT	0.968
AGGTGATGGG	1.04
AGTTCAGAAC	0.99
TTTCTAGTTT	0.984
AAGATGTTGG	1.01
AGTTTTGGGG	0.981
AGTGGGAATG	0.959

Values were extracted from the supplement of paper PMC10126150.
